# procedure summary: qHTS assay for small molecule agonists of the antioxidant response element (ARE) signaling pathway (AID 743202); for activation: % is set by controls: 0 for no effect and ±100 for the full control effect
# run parameters: HepG2 ARE-bla reporter, beta-lactamase FRET, 16 h; series mostly up to 73.3 µM
Records with an inconclusive call do not appear. The source made the active and inactive calls. Calls come from the whole dose curve; as a rule, active = well fitted activation curve with a large enough effect in the signal ratio in the repeat runs (not every such curve was filed as active); inconclusive = weak or mixed curves, or effect the other way; inactive = no such curve, though single readings can be large or run the other way; the % refers to the signal ratio.
Classes used: true (1) (active), false (0) (inactive)

[
  {
    "compound": "C[C@@H](O)[C@H]1C(=O)N2C(C(=O)O)=C(S[C@@H]3CN[C@H](C(=O)N(C)C)C3)[C@H](C)[C@H]12",
    "assigned category": "false (0)"
  },
  {
    "compound": "COC(=O)c1ccccc1O",
    "assigned category": "false (0)"
  },
  {
    "compound": "C=C(C#N)C(=O)OCC",
    "assigned category": "false (0)"
  },
  {
    "compound": "C/C=C(C)/C=C/C=C(C)C",
    "assigned category": "true (1)"
  },
  {
    "compound": "CC[Si](OC(C)=O)(OC(C)=O)OC(C)=O",
    "assigned category": "false (0)"
  },
  {
    "compound": "O=S(=O)(Oc1ccc(Cl)cc1Cl)c1ccccc1",
    "assigned category": "false (0)"
  },
  {
    "compound": "Nc1c(S(=O)(=O)O)cc(Br)c2c1C(=O)c1ccccc1C2=O",
    "assigned category": "true (1)"
  },
  {
    "compound": "CC1Cc2ccccc2N1NC(=O)c1ccc(Cl)c(S(N)(=O)=O)c1 (stereo not drawn)",
    "assigned category": "false (0)"
  },
  {
    "compound": "CC(=O)CCc1ccccc1",
    "assigned category": "false (0)"
  },
  {
    "compound": "Nc1nc2ncc(CNc3ccc(C(=O)N[C@@H](CCC(=O)O)C(=O)O)cc3)nc2c(=O)[nH]1",
    "assigned category": "false (0)"
  },
  {
    "compound": "O=C1O[C@H](CO)[C@@H](O)[C@H](O)[C@H]1O",
    "assigned category": "false (0)"
  },
  {
    "compound": "CC(C)(C)C1CCC(O)CC1 (stereo not drawn)",
    "assigned category": "false (0)"
  },
  {
    "compound": "O=[N+]([O-])c1cccc(Cl)c1",
    "assigned category": "false (0)"
  }
]

----------
# target system: Cytochrome P450 1A2 (Homo sapiens)
# procedure summary: Cytochrome P450 Family 1 Subfamily A Member 2 (CYP1A2) small molecule antagonists: luciferase reporter qHTS assay (AID 1671199); note: nearly all actives have a fitted effect of over 50% in size
# run parameters: P450-Glo CYP1A2 enzyme, luciferin luminescence, 1 h; series mostly up to 115 µM
Results filed as inconclusive are left out. The source made the active and inactive calls. The call rests on the fitted dose curve; in most records, active means well fitted inhibition curve with a large enough effect in the repeat runs; inconclusive means weak or mixed curves; inactive means no such curve, though single readings can be large or run the other way.
Possible outcomes: true (1) (active), false (0) (inactive)

[
  {
    "compound": "OC[C@@H](O)[C@H](O)[C@H](O)[C@@H](O)CO",
    "assigned category": "false (0)"
  },
  {
    "compound": "CC(C)Cc1ccccc1",
    "assigned category": "false (0)"
  },
  {
    "compound": "CCCCCCCCCC(=O)O",
    "assigned category": "false (0)"
  },
  {
    "compound": "COCC(=O)O",
    "assigned category": "false (0)"
  },
  {
    "compound": "ClC1=C(Cl)C(Cl)(Cl)C(Cl)=C1Cl",
    "assigned category": "false (0)"
  },
  {
    "compound": "O=C(O)c1cc(-c2ccccc2)nc2ccccc12",
    "assigned category": "true (1)"
  },
  {
    "compound": "Cn1c([N+](=O)[O-])cnc1COC(N)=O",
    "assigned category": "false (0)"
  },
  {
    "compound": "CCCCCCCCC",
    "assigned category": "false (0)"
  },
  {
    "compound": "CC[Si](OC(C)=O)(OC(C)=O)OC(C)=O",
    "assigned category": "false (0)"
  },
  {
    "compound": "CCCCC(CC)COC(=O)/C=C\\C(=O)OCC(CC)CCCC (centres undefined)",
    "assigned category": "true (1)"
  },
  {
    "compound": "CS(=O)(=O)c1ccc([C@@H](O)[C@@H](CO)NC(=O)C(Cl)Cl)cc1",
    "assigned category": "false (0)"
  },
  {
    "compound": "CCOC(=O)/C=C\\C(=O)OCC",
    "assigned category": "false (0)"
  },
  {
    "compound": "COCC(C)O (centres undefined)",
    "assigned category": "false (0)"
  },
  {
    "compound": "CCCCC/C=C\\C/C=C\\CCCCCCCC(=O)OC",
    "assigned category": "true (1)"
  }
]

----------
# procedure summary: qHTS assay to identify small molecule agonists of the constitutive androstane receptor (CAR) signaling pathway - cell viability counter screen (AID 1224836); note: % is set by controls: 0 for no effect and ±100 for the full control effect; nearly all actives have a fitted effect of over 45% in size
# run parameters: HepG2-CYP2B6-hCAR viability, CellTiter-Fluor, 23 h, PK11195 added to every well; series mostly up to 92.4 µM
Records with an inconclusive call do not appear. Activity calls are given as the source filed them. Calls come from the whole dose curve; as a rule, active = well fitted cell-killing curve with a large enough effect in the repeat runs; inconclusive = weak or mixed curves, or effect the other way; inactive = flat fitted curve, though single readings scatter.

[
  {
    "compound": "CC1CC(OC(=O)c2ccccc2O)CC(C)(C)C1 (configuration not stated)",
    "outcome": "inactive"
  },
  {
    "compound": "Cc1ccc(C)c(C)c1",
    "outcome": "inactive"
  },
  {
    "compound": "C[C@@H](O)[C@H]1C(=O)N2C(C(=O)O)=C(S[C@@H]3CN[C@H](C(=O)N(C)C)C3)[C@H](C)[C@H]12",
    "outcome": "inactive"
  },
  {
    "compound": "CC1(C)CC(N=C=O)CC(C)(CN=C=O)C1 (configuration not stated)",
    "outcome": "inactive"
  },
  {
    "compound": "COCC(=O)O",
    "outcome": "inactive"
  },
  {
    "compound": "CCCCNC(N)=O",
    "outcome": "inactive"
  },
  {
    "compound": "CC(C)(C)C1CCC(O)CC1 (configuration not stated)",
    "outcome": "inactive"
  }
]

----------
# target system: Aryl hydrocarbon receptor (Homo sapiens)
# procedure summary: qHTS assay to identify small molecule that activate the aryl hydrocarbon receptor (AhR) signaling pathway (AID 743085);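 note: HG2L7.5c1 human HepG2 liver cells with stably integrated DRE-driven firefly reporter; % is set by controls: 0 for no effect and ±100 for the full control effect; nearly all actives have a fitted effect of over 15% in size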
# run parameters: HepG2 AhR-luc (HG2L7.5c1), luciferase, 24 h; series mostly up to 70.3 µM
Inconclusive results are not listed. The source made the active and inactive calls. The call rests on the fitted dose curve; in most records, active means well fitted activation curve with a large enough effect in the repeat runs; inconclusive means weak or mixed curves; inactive means no such curve, though single readings can be large or run the other way.

[
  {
    "compound": "CC1Cc2ccccc2N1NC(=O)c1ccc(Cl)c(S(N)(=O)=O)c1 (stereo not drawn)",
    "outcome": "inactive"
  },
  {
    "compound": "COC(=O)c1ccccc1O",
    "outcome": "inactive"
  },
  {
    "compound": "Nc1cc(-c2ccncc2)c[nH]c1=O",
    "outcome": "inactive"
  },
  {
    "compound": "O=S(=O)(O)CCS",
    "outcome": "inactive"
  },
  {
    "compound": "CCC(=O)O",
    "outcome": "inactive"
  },
  {
    "compound": "OCC1CCCO1 (stereo not drawn)",
    "outcome": "inactive"
  },
  {
    "compound": "O=C(Cl)c1c(Cl)c(Cl)c(C(=O)Cl)c(Cl)c1Cl",
    "outcome": "inactive"
  },
  {
    "compound": "OC[C@@H](O)[C@@H](O)[C@H](O)[C@@H](O)CO",
    "outcome": "inactive"
  }
]

----------
# procedure summary: qHTS assay for small molecules that induce genotoxicity in human embryonic kidney cells expressing luciferase-tagged ATAD5 - cell viability (AID 651634); note: nearly all actives have a fitted effect of over 25% in size
# run parameters: HEK293T ATAD5-luc cells viability, CellTiter-Fluor, 15.5 h; series mostly up to 83.3 µM
Records with an inconclusive call do not appear. Active and inactive are the calls of the source. Calls come from the whole dose curve.
Possible outcomes: active, inactive

[
  {
    "compound": "CCCCOCCOCCOC(=O)CCCCC(=O)OCCOCCOCCCC",
    "assigned category": "inactive"
  },
  {
    "compound": "COC(=O)Nc1nc2ccc(Sc3ccccc3)cc2[nH]1",
    "assigned category": "inactive"
  },
  {
    "compound": "CC(C)Cc1ccccc1",
    "assigned category": "inactive"
  },
  {
    "compound": "CCCCC(CC)COC(=O)CCCCCCCC(=O)OCC(CC)CCCC (stereo not given)",
    "assigned category": "inactive"
  },
  {
    "compound": "CC1=C(CC(=O)O)c2cc(F)ccc2/C1=C\\c1ccc(S(C)=O)cc1 (stereo not given)",
    "assigned category": "inactive"
  },
  {
    "compound": "CCCCCCOC(C)=O",
    "assigned category": "inactive"
  },
  {
    "compound": "CC(C)(N=C=O)c1cccc(C(C)(C)N=C=O)c1",
    "assigned category": "inactive"
  },
  {
    "compound": "CC1=C(/C=C/C(C)=C/C=C/C(C)=C/CO)C(C)(C)CCC1",
    "assigned category": "inactive"
  },
  {
    "compound": "Cc1cc(Cc2ccc(N)c(C)c2)ccc1N",
    "assigned category": "inactive"
  },
  {
    "compound": "CCOC(=O)C1OC1c1ccccc1 (stereo not given)",
    "assigned category": "inactive"
  },
  {
    "compound": "C[C@@H](O)[C@H]1C(=O)N2C(C(=O)O)=C(S[C@@H]3CN[C@H](C(=O)N(C)C)C3)[C@H](C)[C@H]12",
    "assigned category": "inactive"
  },
  {
    "compound": "C[C@@H]1O[C@@H](OC[C@H]2O[C@@H](Oc3c(-c4ccc(O)c(O)c4)oc4cc(O)cc(O)c4c3=O)[C@H](O)[C@@H](O)[C@@H]2O)[C@H](O)[C@H](O)[C@H]1O",
    "assigned category": "inactive"
  },
  {
    "compound": "O=C(O)c1ccc([N+](=O)[O-])cc1",
    "assigned category": "inactive"
  },
  {
    "compound": "CCCCCCCCCCCCOCC1CO1 (stereo not given)",
    "assigned category": "inactive"
  },
  {
    "compound": "NCCc1ccc(O)c(O)c1",
    "assigned category": "inactive"
  },
  {
    "compound": "CC(=O)Nc1ccc(C(=O)O)cc1",
    "assigned category": "inactive"
  },
  {
    "compound": "OC[C@@H](O)[C@@H](O)[C@H](O)[C@@H](O)CO",
    "assigned category": "inactive"
  },
  {
    "compound": "CCCCCCCCCCC=CC1CC(=O)OC1=O (stereo not given)",
    "assigned category": "inactive"
  },
  {
    "compound": "Cc1cc(=O)[nH]c(C(C)C)n1",
    "assigned category": "inactive"
  },
  {
    "compound": "NS(=O)(=O)c1cc2c(cc1Cl)NC=NS2(=O)=O",
    "assigned category": "inactive"
  },
  {
    "compound": "O=C1CCCCC1",
    "assigned category": "inactive"
  },
  {
    "compound": "CC(C)(CO)COC(=O)C(C)(C)CO",
    "assigned category": "inactive"
  },
  {
    "compound": "Cc1cc(O)cc(C)c1Cl",
    "assigned category": "inactive"
  },
  {
    "compound": "C=C(C#N)C(=O)OCC",
    "assigned category": "inactive"
  },
  {
    "compound": "O=C(Oc1ccccc1)c1ccc(O)cc1",
    "assigned category": "inactive"
  },
  {
    "compound": "CC1COc2ccccc2N1C(=O)C(Cl)Cl (stereo not given)",
    "assigned category": "inactive"
  },
  {
    "compound": "c1ccc2ccccc2c1",
    "assigned category": "inactive"
  },
  {
    "compound": "CCCCCC/C=C/CCCCCCCC(=O)O",
    "assigned category": "inactive"
  },
  {
    "compound": "Clc1ccc(Cl)c(Cl)c1Cl",
    "assigned category": "inactive"
  },
  {
    "compound": "CS(=O)(=O)c1ccc([C@@H](O)[C@@H](CO)NC(=O)C(Cl)Cl)cc1",
    "assigned category": "inactive"
  },
  {
    "compound": "Nc1c(S(=O)(=O)O)cc(Br)c2c1C(=O)c1ccccc1C2=O",
    "assigned category": "active"
  },
  {
    "compound": "O=S(=O)(O)CCS",
    "assigned category": "inactive"
  },
  {
    "compound": "CCCCC(CC)C(=O)OCCOCCOCCOC(=O)C(CC)CCCC (stereo not given)",
    "assigned category": "inactive"
  },
  {
    "compound": "C=C1CC[C@H](O)CC1=C/C=C1\\CCC[C@]2(C)[C@@H]([C@H](C)/C=C/[C@H](C)C(C)C)CC[C@@H]12",
    "assigned category": "inactive"
  },
  {
    "compound": "CC1CC(OC(=O)c2ccccc2O)CC(C)(C)C1 (stereo not given)",
    "assigned category": "inactive"
  },
  {
    "compound": "Nc1nc2ncc(CNc3ccc(C(=O)N[C@@H](CCC(=O)O)C(=O)O)cc3)nc2c(=O)[nH]1",
    "assigned category": "inactive"
  },
  {
    "compound": "CCC(C)C=O (stereo not given)",
    "assigned category": "inactive"
  },
  {
    "compound": "CC1(C)CC(N=C=O)CC(C)(CN=C=O)C1 (stereo not given)",
    "assigned category": "inactive"
  },
  {
    "compound": "Cc1ccc(N)c(S(=O)(=O)O)c1",
    "assigned category": "inactive"
  },
  {
    "compound": "CCCCC(CC)COC(=O)/C=C\\C(=O)OCC(CC)CCCC (stereo not given)",
    "assigned category": "inactive"
  },
  {
    "compound": "c1ccc2[nH]cnc2c1",
    "assigned category": "inactive"
  },
  {
    "compound": "CCc1ccccc1O",
    "assigned category": "inactive"
  },
  {
    "compound": "O=[N+]([O-])c1cccc(Cl)c1",
    "assigned category": "inactive"
  },
  {
    "compound": "CC(=O)CCc1ccccc1",
    "assigned category": "inactive"
  },
  {
    "compound": "C=CC(=O)OCCCCCCCC(C)C",
    "assigned category": "inactive"
  }
]
